FYI, the data here is from patent US9334280B2.

test system: MCF-7 mammary gland adenocarcinoma cells; test: MTT antiproliferative assay, MCF-7; assay type: cell-based; conditions: Homo sapiens, MCF7; Table 6; 48 h, MTT, ± SD; read-out: GI50 in vitro Values, MCF-7
measuredProperty: GI50 (nM)

a = Cc1nc(=O)c2c(-c3cccnc3)c(C(=O)c3ccccc3)[nH]c2[nH]1 [Compound 21]
b = Cc1nc(=O)c2c(-c3cc(Br)cc(Br)c3)c(C(=O)c3ccccc3)[nH]c2[nH]1 [Compound 23]
Exercise: // max by GI50 over [ a , b ] Field: selected label. Fill in the label of the entry you choose.
Key: a
(a: 4700 nM, b: 270 nM)

###

tested on: UM-SCC10A head and neck cancer cells; test: MTT antiproliferative assay, UM-SCC10A; type: cell-based; conditions: UMSCC-10A, Table 1A, 48 h, read-out: Concentration required to reduce the viability of cells by 50%, UM-SCC10A
measuredProperty: IC50 (nM)

givenSmiles: O=C(c1ccccc1)c1[nH]c2[nH]cnc(=O)c2c1-c1cc(Br)cc(Br)c1
IC50 (nM): 90
//
givenSmiles: O=C(c1ccccc1)c1[nH]c2[nH]cnc(=O)c2c1-c1cncc(Br)c1
IC50 (nM): 90

###

test system: SW480 colon cancer cells; assay: MTT antiproliferative assay, SW480; type: cell-based; details: Homo sapiens, Table 1A, 48 h, read-out: Concentration required to reduce the viability of cells by 50%, SW480
measuredProperty: IC50

Exercise: Using the record for O=C(c1ccccc1)c1[nH]c2[nH]cnc(=O)c2c1-c1ccccc1 , report its IC50.
Key: < 1 nM

###

test system: A549 non-small-cell lung cancer cells; test: MTT antiproliferative assay, A549; assay type: cell-based; conditions: Homo sapiens, Table 6, 48 h, ± SD, read-out: GI50 in vitro Values, A549
measuredProperty: GI50 (nM)

Previously resolved entries follow.
givenSmiles: Cc1nc(=O)c2c(-c3cc(Br)cc(Br)c3)c(C(=O)c3ccccc3)[nH]c2[nH]1
studySystem: A549 non-small-cell lung cancer cells
recordedResult: 380
//
givenSmiles: Cc1nc(=O)c2c(-c3cncc(Br)c3)c(C(=O)c3ccccc3)[nH]c2[nH]1
studySystem: A549 non-small-cell lung cancer cells
recordedResult: 1100
//
givenSmiles: Cc1nc(=O)c2c(-c3cccc(F)c3)c(C(=O)c3ccccc3)[nH]c2[nH]1
studySystem: A549 non-small-cell lung cancer cells
recordedResult: 1000
//
givenSmiles: Cc1nc(=O)c2c(-c3cccc(Br)c3)c(C(=O)c3ccccc3)[nH]c2[nH]1
studySystem: A549 non-small-cell lung cancer cells
recordedResult: 650
//
givenSmiles: Cc1nc(=O)c2c(-c3ccccc3)c(C(=O)c3ccccc3)[nH]c2[nH]1
studySystem: A549 non-small-cell lung cancer cells
recordedResult: 250

1 = Cc1nc(=O)c2c(-c3cccnc3)c(C(=O)c3ccccc3)[nH]c2[nH]1
2 = Cc1nc(=O)c2c(-c3cccc(Cl)c3)c(C(=O)c3ccccc3)[nH]c2[nH]1
Exercise: // max by GI50 over [ 1 , 2 ] Field: selected label. Fill in the label of the entry you choose.
Key: 1
(1: 12000 nM, 2: 600 nM)

###

test system: HCT8 colon cancer cells; assay: MTT antiproliferative assay, HCT8; type: cell-based; details: Homo sapiens, HCT-8, Table 1A, 48 h, read-out: Concentration required to reduce the viability of cells by 50%, HCT8
pIC50: −log10 of the molar value.
measuredProperty: pIC50

Exercise: Using the record for O=C(c1ccccc1)c1[nH]c2[nH]cnc(=O)c2c1-c1ccccc1 , report its pIC50.
Key: > 9.00

###

test system: SW620 colon cancer cells; assay: MTT antiproliferative assay, SW620; format: cell-based; details: Homo sapiens, SW-620, Table 1A, 48 h, read-out: Concentration required to reduce the viability of cells by 50%, SW620
measuredProperty: IC50

Exercise: Using the record for O=C(c1ccccc1)c1[nH]c2[nH]cnc(=O)c2c1-c1ccccc1 [Rig35] , report its IC50.
Key: < 1 nM

###

tested on: HeLa cervical adenocarcinoma cells; assay: MTT antiproliferative assay, HeLa; assay type: cell-based; conditions: Homo sapiens, Table 1, 48 h treatment, MTT, ± SD, read-out: GI50 in vitro Values, HeLa
measuredProperty: GI50 (nM)

Previously resolved entries follow.
givenSmiles: N#Cc1cccc(-c2c(C(=O)c3ccccc3)[nH]c3[nH]cnc(=O)c23)c1
unitAbbrev: nM
GI50: 187
--
givenSmiles: COc1ccc(C(=O)c2[nH]c3[nH]cnc(=O)c3c2-c2cc(Br)cc(Br)c2)cc1
unitAbbrev: nM
GI50: 300
--
givenSmiles: O=C(c1ccccc1)c1[nH]c2[nH]cnc(=O)c2c1-c1cc(Br)cc(Br)c1
unitAbbrev: nM
GI50: 95
--
givenSmiles: O=C(c1ccccc1)c1[nH]c2[nH]cnc(=O)c2c1-c1cncc(Br)c1
unitAbbrev: nM
GI50: 80
--
givenSmiles: O=C(c1ccccc1)c1[nH]c2[nH]cnc(=O)c2c1-c1cccc(Br)n1
unitAbbrev: nM
GI50: 150
--
givenSmiles: O=C(c1ccccc1)c1[nH]c2[nH]cnc(=O)c2c1-c1cccc(O)c1
unitAbbrev: nM
GI50: 860
--
givenSmiles: O=C(c1ccc(O)cc1)c1[nH]c2[nH]cnc(=O)c2c1-c1ccccc1
unitAbbrev: nM
GI50: 303
--
givenSmiles: O=C(c1ccccc1)c1[nH]c2[nH]cnc(=O)c2c1-c1cccnc1
unitAbbrev: nM
GI50: 888
--
givenSmiles: O=C(c1ccc(OCc2ccccc2)cc1)c1[nH]c2[nH]cnc(=O)c2c1-c1cc(Br)cc(Br)c1
unitAbbrev: nM
GI50: 400
--
givenSmiles: O=C(c1ccc(Br)cc1)c1[nH]c2[nH]cnc(=O)c2c1-c1cc(Br)cc(Br)c1
unitAbbrev: nM
GI50: 2000

a = O=C(c1ccccc1)c1[nH]c2[nH]cnc(=O)c2c1-c1c(Cl)cccc1Cl
b = COc1cc(-c2c(C(=O)c3ccccc3)[nH]c3[nH]cnc(=O)c23)cc(Br)c1OC
c = O=C(c1ccccc1)c1[nH]c2[nH]cnc(=O)c2c1-c1cccc(Cl)c1
d = O=C(c1ccccc1)c1[nH]c2[nH]cnc(=O)c2c1-c1cccc(I)c1
Exercise: hey, can you rank those molecules up there by GI50? biggest number first please Give your ranking as a list of the labels in the requested order.
Key: b, a, d, c

A = COc1cc(-c2c(C(=O)c3ccccc3)[nH]c3[nH]cnc(=O)c23)cc(I)c1OC
B = O=C(c1ccccc1)c1[nH]c2[nH]cnc(=O)c2c1-c1cccc(Br)c1
Exercise: // max by GI50 over [ A , B ] Field: selected label. Fill in the label of the entry you choose.
Key: A
(A: 8000 nM, B: 130 nM)

P = O=C(c1ccc(F)cc1)c1[nH]c2[nH]cnc(=O)c2c1-c1cc(Br)cc(Br)c1
Q = O=C(c1ccccc1)c1[nH]c2[nH]cnc(=O)c2c1-c1ccccc1
Exercise: # compare GI50 for P vs Q ; return the one with the smaller value Field: selected label. Fill in the label of the entry you choose.
Key: Q
(Q: 35 nM, P: 6000 nM)

###

system: MCF-7 mammary gland adenocarcinoma cells; assay: MTT antiproliferative assay, MCF-7; assay type: cell-based; conditions: Homo sapiens, MCF7; Table 6; 48 h, MTT, ± SD; read-out: GI50 in vitro Values, MCF-7
measuredProperty: GI50 (µM)

givenSmiles: Cc1nc(=O)c2c(-c3cccc(Br)c3)c(C(=O)c3ccccc3)[nH]c2[nH]1
unitAbbrev: µM
GI50: 0.27

a = Cc1nc(=O)c2c(-c3cccc(F)c3)c(C(=O)c3ccccc3)[nH]c2[nH]1
b = Cc1nc(=O)c2c(-c3ccccc3)c(C(=O)c3ccccc3)[nH]c2[nH]1
c = Cc1nc(=O)c2c(-c3cccc(Cl)c3)c(C(=O)c3ccccc3)[nH]c2[nH]1
d = Cc1nc(=O)c2c(-c3cncc(Br)c3)c(C(=O)c3ccccc3)[nH]c2[nH]1
Exercise: Hey, can you sort those molecules up there by GI50, smallest first? Give your ranking as a list of the labels in the requested order.
Key: b, c, a, d
